type: in vitro ADME, human; conditions: 20 min incubation
Measured Metabolic stability in human liver microsomes (% metabolized compound after 20 min), listed per entry for reference.
State just the number; it will be interpreted in %.

Take a look at these entries with their results.
{"compound": "CO/N=C1\\C[C@@H](C)O[C@@H](O[C@@H]2[C@@H](C)[C@H](O[C@H]3C[C@@](C)(O)[C@@H](O)[C@H](C)O3)[C@@H](C)C(=O)O[C@H]([C@@H](C)CO[C@@H]3O[C@H](C)[C@@H](O)[C@@H](OC)[C@H]3OC)[C@H](C)[C@@H](OC(=O)CC(C)C)[C@@H](C)C(=O)[C@@](C)(OC(=O)NCc3ccccc3)C[C@@H]2C)[C@@H]1O", "test value": 40}
{"compound": "CON=C1CC(C)OC(OC2C(C)CC(C)(OC(=O)NC(C)(C)CNS(=O)(=O)c3ccccc3)C(=O)C(C)C(OC(=O)CC(C)C)C(C)C(C(C)COC3OC(C)C(O)C(OC)C3OC)OC(=O)C(C)C(OC3CC(C)N(C)CC(C)O3)C2C)C1O (stereo not shown)", "test value": 10}
{"compound": "CON=C1C[C@@H](C)O[C@@H](O[C@@H]2[C@@H](C)[C@H](O[C@H]3C[C@@H](C)N(C)C[C@H](C)O3)[C@@H](C)C(=O)O[C@H](C(C)CO[C@@H]3O[C@H](C)[C@@H](O)[C@@H](OC)[C@H]3OC)[C@H](C)[C@@H](OC(=O)CC(C)C)[C@@H](C)C(=O)[C@@](C)(OC(=O)NCc3ccccc3)C[C@@H]2C)[C@@H]1O (stereo partly shown)", "test value": 33}

Let us move to another entry and its Metabolic stability in human liver microsomes (% metabolized compound after 20 min).
(Q) # Metabolic stability in human liver microsomes (% metabolized compound after 20 min) lookup, item COC1C(OCC(C)C2OC(=O)C(C)C(OC3CC(C)(O)C(O)C(C)O3)C(C)C(OC3OC(C)CC(=O)C3O)C(C)CC(C)(O)C(=O)C(C)C(OC(=O)CC(C)C)C2C)OC(C)C(O)C1OC (stereo not shown)
(A) 67
